TGT: Aβ(1-40) (Homo sapiens)
Construct: […]; purchased Bachem, Torrance, Calif
Sequence (P05067 672-711 limits assumed): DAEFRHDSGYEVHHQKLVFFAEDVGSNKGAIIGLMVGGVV
PROTOCOL_TEXT: BASSR (Beta-Amyloid Self-Seeding Radioassay), inhibitors of self-seeded amyloid fibril growth
Format: biochemical
CONDITIONS_USED: 30 μM soluble Aβ(1-40) + 125I-labeled Aβ(1-40), 37° C., 3 to 5 hours; replicate values; letter = synthetic lot; ppt = precipitate; V-shaped = inhibition followed by precipitation
MEASURED_PROPERTY: IC50

compound=O=C(O)c1c(Nc2ccc(CCc3ccc(Cl)c(Cl)c3)cc2)cccc1C(F)(F)F result="70 µM"
compound=CC(=O)Nc1cccc(CCc2ccc(Nc3ccccc3C(=O)O)cc2)c1 result="> 100 µM"
compound=CCN(CC)c1ccc(Nc2ccc(CCc3ccc(Cl)c(Cl)c3)cc2)c(C(=O)O)c1 result="> 100 µM"
compound=O=C(O)c1ccccc1Nc1ccc(CCCc2cccc(N3CCCCC3)c2)cc1 result="> 100 µM"
compound=O=C(O)c1cc([N+](=O)[O-])ccc1Nc1ccc(CCc2ccccc2Cl)cc1 result="3 µM"
compound=CN(C)c1cccc(CCCc2ccc(Nc3ccccc3C(=O)O)cc2)c1 result="> 100 µM"
compound=O=C(O)c1ccccc1Nc1ccc(CCc2ccccc2O)cc1 result="> 100 µM"
compound=O=C(O)c1cc([N+](=O)[O-])ccc1Nc1ccc(CCc2ccc(-c3ccccc3)cc2)cc1 result="> 100 µM"
compound=O=C(O)c1ccccc1Nc1ccc(CCc2ccc(Oc3ccccc3)cc2)cc1 result="> 100 µM"
compound=CCNc1ccc(CCCc2ccc(Nc3ccccc3C(=O)O)cc2)cc1 result="> 100 µM"
compound=CCCCN1CCCc2cc(C=C3SC(=S)N(CCC(=O)O)C3=O)ccc21 result="4.8 µM"
compound=Clc1ccc(CCc2ccc(Nc3ccccc3-c3nnn[nH]3)cc2)cc1Cl result="> 100 µM"
compound=COc1ccc(Nc2ccc(CCCCc3ccc(Cl)c(Cl)c3)cc2)c(C(=O)O)c1 result="> 100 µM"
compound=Cc1ccc(Nc2ccc(CCCc3ccc(Cl)c(Cl)c3)cc2)c(C(=O)O)c1 result="> 100 µM"
compound=CCCNc1ccc(CCCc2ccc(Nc3ccccc3C(=O)O)cc2)cc1 result="85 µM"
compound=O=C(O)c1cccc(C(F)(F)F)c1Nc1ccc(CCc2ccc(Cl)c(Cl)c2)cc1 result="> 100 µM"
compound=O=C(O)c1ccccc1Nc1ccc(CCc2ccc(Nc3ccccc3C(=O)O)cc2)cc1 result="> 100 µM"
compound=CCN(CC)Cc1ccc(CCCc2ccc(Nc3ccccc3C(=O)O)cc2)cc1 result="> 100 µM"
compound=COc1cc(CCc2ccc(Nc3ccccc3C(=O)O)cc2)cc(OC)c1OC result="> 100 µM"
compound="O=C(O)c1ccccc1Nc1ccc(CCc2ccc(Cl)c(Cl)c2)cc1 [Example 119]" result="> 100 µM"
compound=CCCN(CCC)c1ccc(CCCc2ccc(Nc3ccccc3C(=O)O)cc2)cc1 result="> 100 µM"
compound=COc1ccc(CCc2ccc(Nc3ccccc3C(=O)O)cc2)c(OC)c1 result="82 µM"
compound=Cc1ccc(Nc2ccc(CCc3ccc(Cl)c(Cl)c3)cc2)c(C(=O)O)c1 result="> 100 µM"
compound=O=C(O)c1ccccc1Nc1ccc(CCc2cc(Cl)cc(Cl)c2)cc1 result="> 100 µM"
compound=CCN(CC)C(=O)c1ccc(CCCc2ccc(Nc3ccccc3C(=O)O)cc2)cc1 result="25 µM"
compound=O=C(O)c1ccccc1Nc1ccc(-c2ccc(Cl)cc2Cl)c(Cl)c1 result="40 µM"
compound=CCCN(CCC)c1ccc(Nc2ccc(CCc3ccc(Cl)c(Cl)c3)cc2)c(C(=O)O)c1 result="> 100 µM"
compound=O=C(O)c1ccccc1Nc1cccc(CCc2ccc(Cl)cc2)c1 result="> 100 µM"
compound=O=C(NS(=O)(=O)C(F)(F)F)c1ccccc1Nc1ccc(CCCc2ccc(Cl)c(Cl)c2)cc1 result="> 100 µM"
compound=CCCCN1CCCc2cc(C=C3SC(=S)N(CCCC(=O)O)C3=O)ccc21 result="3.5 µM"
compound=O=C(O)c1cc([N+](=O)[O-])ccc1Nc1ccc(CCc2ccc(F)c(F)c2)cc1 result="41 µM"
compound=Nc1ccc(Nc2ccc(CCc3ccc(Cl)c(Cl)c3)cc2)c(C(=O)O)c1 result="> 100 µM"
